Each item that follows carries a reported T/C.
- System: P388 leukemia ip, CD2F1 mice, survival T/C
- protocol.description: NCI In Vivo Anticancer Drug Screen. Data for tumor model P388 Leukemia (intraperitoneal) in CD2F1 (CDF1) mice
- run.conditions: endpoint: median survival time; dose: 200.0 mg/kg/injection; schedule: Q04DX002 (ip); vehicle: saline with Tween-80; higher = longer survival
- Experimental: The antitumor activity of compounds was measured in mice bearing transplantable tumors. Survival or tumor size were measured and the results are expressed as the measurement made in the treated group (T) divided by the measurement made in the vehicle treated control group (C). The tumor model used in this assay is P388 Leukemia (intraperitoneal) in CD2F1 (CDF1) mice
Toxic doses and inconclusive results are not listed.

Example entries begin here.
CCCCCCn1c(Cl)c(C(=O)O)c2ccccc21; 97 % of control
CC(C)=CCC(OC(=O)C=C(C)C)c1cc(O)c2c(O)ccc(O)c2c1O.[O]=[V] (centres undefined); 92 % of control
CCCCNc1c(C(=O)OCC)cnc2c1cnn2CC; 102 % of control
CN1CCc2c(n(C)c3ccccc23)C1=O; 101 % of control
C/C(=N\N/C(N)=N/S(=O)(=O)c1ccc(C)cc1)c1ccc(C)cc1; 98 % of control

Which value of T/C has been reported for CCOC(=O)C1C(=O)N2C(=O)C(NC(C)=O)=C(O)C2C1c1ccccc1 (centres undefined) in the records? 99 % of control

Then ClC1COc2cc(c3ccccc3c2)-c2c(ccc3ccccc23)OCCOCCOc2ccc3ccccc3c2-c2c(ccc3ccccc23)OCC(Cl)O1 (centres undefined) ? 102 % of control

Then CNc1nc(SC)nc2c1ncn2C1CCCO1 (centres undefined) ? 95 % of control

Then "Nc1cccc(-n2ccnc2)c1" ? 93 % of control

Then COc1cc(OC)cc(C2OC(=O)c3c(OC)cc(C)cc32)c1 (centres undefined) ? 88 % of control

Then "O=C(O)c1nn(-c2ccccc2)c2c1CS(=O)(=O)c1ccccc1-2" ? 106 % of control

Then "S=C(S)n1nc(-c2ccccc2)c(N=Nc2cccc(Cl)c2Cl)c1-c1ccccc1" ? 93 % of control

Then "NC(=S)N/N=C/c1nc2ccccc2c(=O)n1-c1ccc(Cl)cc1" ? 95 % of control

Then "CCOC(=O)CC12C=CC(CC(=O)OCC)(CC1)n1c(=O)n(C)c(=O)n12" ? 100 % of control

###

Each item that follows carries a reported T/C.
- Tested on: P388 leukemia ip, CD2F1 mice, survival T/C
- protocol.description: NCI In Vivo Anticancer Drug Screen. Data for tumor model P388 Leukemia (intraperitoneal) in CD2F1 (CDF1) mice
- run.conditions: endpoint: median survival time; dose: 60.0 mg/kg/injection; schedule: Q01DX005 (ip); vehicle: saline; higher = longer survival
Inconclusive results and toxic doses are left out.

Example entries begin here.
CCN(CC)CC(C)(C)C(=O)/C=C/c1ccccc1; 103 % of control
CO[C@H]1C[C@H]2CC[C@@]1(C)C2(C)C; 104 % of control
Nc1cc(N)n(C2=NCCN2)n1; 104 % of control

Lab request: please report T/C under test system P388 leukemia ip, CD2F1 mice, survival T/C for O=S(=O)(O)C(O)C(F)(F)C(F)(F)C(F)(F)F (centres undefined) 98 % of control

Then Cc1ncc(COP(=O)(O)O)c(C2NC(C(=O)O)CS2)c1O (centres undefined) ? 92 % of control

Then "CC(=O)Cc1cc(-c2cc(CC(C)=O)nc(N)n2)nc(N)n1" ? 96 % of control

Then "COC(=O)c1nc(=S)[nH]c(C(=O)OC)c1C(=O)c1cccnc1" ? 108 % of control

Then "C=CCOC(=O)OCCCO" ? 105 % of control

Then CC(=O)N1CCN(C(C)=O)C2C1N(C(C)=O)CCN2C(C)=O (centres undefined) ? 105 % of control
